SYSTEM_TESTED: T1, human RGMa (human, UniProt Q96B86 48-422, limits assumed)
T1 construct: also called hRGMa; h RGMa
T1 sequence (looked up): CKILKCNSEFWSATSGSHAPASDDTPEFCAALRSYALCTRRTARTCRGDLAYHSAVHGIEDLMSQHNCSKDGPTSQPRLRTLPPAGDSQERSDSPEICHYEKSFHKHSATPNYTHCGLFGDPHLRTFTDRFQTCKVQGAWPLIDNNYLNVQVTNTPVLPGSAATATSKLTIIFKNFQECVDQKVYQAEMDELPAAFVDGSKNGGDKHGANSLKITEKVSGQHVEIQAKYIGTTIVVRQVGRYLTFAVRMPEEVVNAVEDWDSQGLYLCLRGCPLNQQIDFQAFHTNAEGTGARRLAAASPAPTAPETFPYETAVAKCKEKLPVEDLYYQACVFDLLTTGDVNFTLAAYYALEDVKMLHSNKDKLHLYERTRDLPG
TEST_DESCRIPTION: BIAcore; Ab captured via anti-hIgG Fc on CM5 chip, antigen injected; 1:1 Langmuir fit
Readings of kon for the listed binders
READOUT_LABEL: kon (M⁻¹ s⁻¹)

>  <BINDER>
RGMA-h5F9pJP297/pJP298 hIgG1/K mut (antibody, V domains shown, Tested as IgG; also called h5F9.AM8; H5F9AM.8) VH: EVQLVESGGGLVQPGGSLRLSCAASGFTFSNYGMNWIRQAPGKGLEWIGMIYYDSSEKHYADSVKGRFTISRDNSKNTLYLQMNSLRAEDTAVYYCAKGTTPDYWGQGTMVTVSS VL: DVVLTQSPLSLPVTLGQPASISCRSSQSLEESDGYTFLHWFQQRPGQSPRLLIYEVSTRFSGVPDRFSGSGSGTDFTLKISRVEAEDVGVYYCFQATHDPLTFGQGTKLEIK

>  <ASSAY_RESULT>
870000

$$$$
>  <BINDER>
RGMA-h5F9pJP302/pJP303 hIgG1/K mut (antibody, V domains shown, Tested as IgG; also called h5F9.AM11; H5F9AM.11) VH: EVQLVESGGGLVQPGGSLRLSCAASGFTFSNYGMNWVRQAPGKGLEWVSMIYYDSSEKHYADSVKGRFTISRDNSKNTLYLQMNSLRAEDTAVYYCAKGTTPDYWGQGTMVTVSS VL: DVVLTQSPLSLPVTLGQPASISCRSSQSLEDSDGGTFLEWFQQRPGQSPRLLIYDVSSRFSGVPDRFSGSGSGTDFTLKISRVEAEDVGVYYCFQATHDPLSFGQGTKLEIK

>  <ASSAY_RESULT>
930000

$$$$
>  <BINDER>
RGMA-h5F9Vh7a/pJP291 hIgG1/K mut (antibody, V domains shown, Tested as IgG; also called h5F9.AM4; H5F9AM.4) VH: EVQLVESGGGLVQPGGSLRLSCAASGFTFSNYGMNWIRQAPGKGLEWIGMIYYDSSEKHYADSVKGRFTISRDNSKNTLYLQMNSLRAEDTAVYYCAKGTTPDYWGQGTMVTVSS VL: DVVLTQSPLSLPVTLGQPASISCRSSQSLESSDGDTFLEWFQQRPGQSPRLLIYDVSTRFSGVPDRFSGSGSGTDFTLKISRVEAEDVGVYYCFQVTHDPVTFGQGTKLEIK

>  <ASSAY_RESULT>
1.4e+06

$$$$
>  <BINDER>
humanized antibody 5F9.23 (antibody, V domains shown, also called h5F9.23; H5F9.23) VH: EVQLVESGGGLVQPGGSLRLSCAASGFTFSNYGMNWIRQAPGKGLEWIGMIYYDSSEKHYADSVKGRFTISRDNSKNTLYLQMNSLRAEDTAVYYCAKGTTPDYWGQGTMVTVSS VL: DVVLTQSPLSLPVTLGQPASISCRSSQSLEYSDGYTFLEWFQQRPGQSPRLLIYEVSNRFSGVPDRFSGSGSGTDFTLKISRVEAEDVGVYYCFQATHDPLTFGQGTKLEIKR

>  <ASSAY_RESULT>
600000

$$$$
